# Test system: Vero E6 infected with SARS-CoV-2
# Method: inhibition of SARS-CoV-2 cytopathic effect; higher = more antiviral protection, active = above 15
# Study Conditions: 8.33 nM; 48 h
Exercise: for every item that follows, state its recorded inhibition of SARS-CoV-2 cytopathic effect.

QUERY: Item COc1cc(Oc2ccnc3cc(OC)c(OC)cc23)ccc1NC(=O)NC(C)c1nccs1 (stereo not drawn) has what recorded inhibition of SARS-CoV-2 cytopathic effect?
RESULT: 0.95% (inactive)

QUERY: Item "COc1cc(OC)c2c(=O)[nH]c(-c3cc(C)c(OCCO)c(C)c3)nc2c1" has what recorded inhibition of SARS-CoV-2 cytopathic effect?
RESULT: 0.93% (inactive)

QUERY: Item "O=C(O)C1(C(=O)O)CCC1.[NH2-].[NH2-].[Pt+2]" has what recorded inhibition of SARS-CoV-2 cytopathic effect?
RESULT: 3.65% (inactive)

QUERY: Item "COc1ccc([C@@H]2CC(=O)c3c(O)cc(O)cc3O2)cc1O" has what recorded inhibition of SARS-CoV-2 cytopathic effect?
RESULT: 3.18% (inactive)

QUERY: Item "COC[C@H](C)Oc1cc(O[C@@H](C)Cc2ccccc2)cc(C(=O)Nc2ccc(C(=O)O)cn2)c1" has what recorded inhibition of SARS-CoV-2 cytopathic effect?
RESULT: 2.26% (inactive)

QUERY: Item "O=C1c2ccccc2C(=O)C1c1ccc(Br)cc1" has what recorded inhibition of SARS-CoV-2 cytopathic effect?
RESULT: 2.1% (inactive)

QUERY: Item "O=C(NC1(c2ccccc2)CC1)c1c(CN2CCC(N3CCCCC3)CC2)c(-c2cccc(C(F)(F)F)c2)nc2cc(Br)ccc12" has what recorded inhibition of SARS-CoV-2 cytopathic effect?
RESULT: 3.71% (inactive)

QUERY: Item CCCCOc1cc(CC2CNC(=O)N2)ccc1OC (stereo not drawn) has what recorded inhibition of SARS-CoV-2 cytopathic effect?
RESULT: 1.6% (inactive)

QUERY: Item "NC(=O)C1=CN([C@@H]2O[C@H](COP(=O)(O)OP(=O)(O)OC[C@H]3O[C@@H](n4cnc5c(N)ncnc54)[C@H](O)[C@@H]3O)[C@@H](O)[C@H]2O)C=CC1" has what recorded inhibition of SARS-CoV-2 cytopathic effect?
RESULT: -4.29% (inactive)

QUERY: Item "COC(=O)[C@@H]1[C@H]2C[C@H]3c4[nH]c5ccccc5c4CCN3C[C@@H]2CC[C@@H]1O" has what recorded inhibition of SARS-CoV-2 cytopathic effect?
RESULT: 2.4% (inactive)

QUERY: Item "Cc1cccc(-c2[nH]c(CNc3ccccc3F)nc2-c2ccc3ncnn3c2)n1" has what recorded inhibition of SARS-CoV-2 cytopathic effect?
RESULT: 3.47% (inactive)

QUERY: Item "CC(C)(C)c1ccc(/C=C/C(=O)Nc2ccc3c(c2)OCCO3)cc1" has what recorded inhibition of SARS-CoV-2 cytopathic effect?
RESULT: 0.94% (inactive)

QUERY: Item "CC(C)OC(=O)C1=CN(C(=O)c2ccc(F)c(F)c2)CC(C)(C)c2c1[nH]c1ccccc21" has what recorded inhibition of SARS-CoV-2 cytopathic effect?
RESULT: -1.15% (inactive)

QUERY: Item "C/C=C/C=C/C(=O)O" has what recorded inhibition of SARS-CoV-2 cytopathic effect?
RESULT: 2.26% (inactive)

QUERY: Item "C[C@@H]1C[C@H]2[C@@H]3CCC4=CC(=O)C=C[C@]4(C)[C@@]3(F)[C@@H](O)C[C@]2(C)[C@@]1(O)C(=O)COP(=O)(O)O" has what recorded inhibition of SARS-CoV-2 cytopathic effect?
RESULT: 0.18% (inactive)

QUERY: Item "CNC(=O)c1cc(Oc2ccc(NC(=O)Nc3ccc(Cl)c(C(F)(F)F)c3)c(F)c2)ccn1" has what recorded inhibition of SARS-CoV-2 cytopathic effect?
RESULT: 3.25% (inactive)

QUERY: Item Cc1cccc(C)c1NC(=O)C1CCCCN1C (stereo not drawn) [mepivacaine] has what recorded inhibition of SARS-CoV-2 cytopathic effect?
RESULT: -1.78% (inactive)

QUERY: Item "CC(C)Nc1nc2cc(Cl)c(Cl)cc2n1[C@H]1O[C@@H](CO)[C@H](O)[C@@H]1O" has what recorded inhibition of SARS-CoV-2 cytopathic effect?
RESULT: -0.5% (inactive)

###

# Tested on: Vero E6 infected with SARS-CoV-2
# Method: inhibition of SARS-CoV-2 cytopathic effect; higher = more antiviral protection, active = above 15
# Study Conditions: 8.33 nM; 48 h
Measurement Kind: inhibition of SARS-CoV-2 cytopathic effect (%)
Supply the numeric figure in %, leaving out any unit text.

QUERY: Item CCCN1CCC[C@@H]2Cc3n[nH]cc3C[C@H]21 [quinpirol-(-)] has what recorded inhibition of SARS-CoV-2 cytopathic effect?
RESULT: 2.95

QUERY: Item N[C@@H](C(=O)O)c1ccc(C(=O)O)c(O)c1 (racemic) [4-carboxy-3-hydroxyphenylglycine-(RS)] has what recorded inhibition of SARS-CoV-2 cytopathic effect?
RESULT: -0.33

QUERY: Item "COc1cc(N2CCC(O)CC2)ccc1Nc1cc(Nc2ccccc2S(=O)(=O)C(C)C)c2cc[nH]c2n1" has what recorded inhibition of SARS-CoV-2 cytopathic effect?
RESULT: 3.7

QUERY: Item "Cc1ccc(O)c([C@H](CCN(C(C)C)C(C)C)c2ccccc2)c1" has what recorded inhibition of SARS-CoV-2 cytopathic effect?
RESULT: 1.62

###

Exercise: for every item that follows, state its recorded SARS-CoV-2 infection rate.
# Tested on: Vero E6 infected with SARS-CoV-2
# Method: SARS-CoV-2 infection rate relative to infected DMSO; higher = more infection, active = 60 or less
# Study Conditions: 24 h
Supply the numeric figure in %, leaving out any unit text.

QUERY: Item C[C@H](CCC(=O)O)[C@H]1CC[C@H]2[C@@H]3CC[C@@H]4C[C@H](O)CC[C@]4(C)[C@H]3CC[C@]12C [lithocholic-acid] (10 µM) has what recorded SARS-CoV-2 infection rate?
RESULT: 110

QUERY: Item OC[C@H]1O[C@@H](n2cnc3c(NC4CCCC4)ncnc32)[C@H](O)[C@@H]1O [N6-cyclopentyladenosine] (10 µM) has what recorded SARS-CoV-2 infection rate?
RESULT: 109

QUERY: Item COc1cc2c(=O)c(-c3ccc(O)cc3)coc2cc1O [glycitein] (10 µM) has what recorded SARS-CoV-2 infection rate?
RESULT: 110

QUERY: Item O=C(Nc1cc(C(F)(F)F)cc(C(F)(F)F)c1)c1cnc(Cl)nc1C(F)(F)F (10 µM) has what recorded SARS-CoV-2 infection rate?
RESULT: 111

QUERY: Item Cc1nc2n(c(=O)c1CCN1CCC(c3noc4cc(F)ccc34)CC1)CCCC2O (configuration not stated) [paliperidone] (10 µM) has what recorded SARS-CoV-2 infection rate?
RESULT: 108

QUERY: Item O=C1OC2(c3ccccc31)c1cc(I)c(O)c(I)c1Oc1c2cc(I)c(O)c1I [erythrosine] (0.833333 µM) has what recorded SARS-CoV-2 infection rate?
RESULT: 116

QUERY: Item C[C@]12CCC(=O)C[C@@H]1CC[C@@H]1[C@@H]2CC[C@]2(C)C=CC[C@@H]12 [androstenone] (10 µM) has what recorded SARS-CoV-2 infection rate?
RESULT: 112

###

# Tested on: Vero E6 infected with SARS-CoV-2
# Method: inhibition of SARS-CoV-2 cytopathic effect; higher = more antiviral protection, active = above 15
# Study Conditions: 833.33 nM; 48 h
Measurement Kind: inhibition of SARS-CoV-2 cytopathic effect (%)
Supply the numeric figure in %, leaving out any unit text.

QUERY: Item "CCCc1nc(C(C)(C)O)c(C(=O)OCc2oc(=O)oc2C)n1Cc1ccc(-c2ccccc2-c2nnn[nH]2)cc1" has what recorded inhibition of SARS-CoV-2 cytopathic effect?
RESULT: 1.87

QUERY: Item "CN1C(=O)N[C@H](Cc2c[nH]c3c(Cl)cccc23)C1=O" has what recorded inhibition of SARS-CoV-2 cytopathic effect?
RESULT: -0.96

QUERY: Item O=[N+]([O-])O[C@@H]1CO[C@H]2[C@@H]1OC[C@@H]2O [isosorbide-mononitrate] has what recorded inhibition of SARS-CoV-2 cytopathic effect?
RESULT: 2.64

QUERY: Item "CCCc1ccc(C(=O)O)cc1" has what recorded inhibition of SARS-CoV-2 cytopathic effect?
RESULT: -0.84

###

# System: Vero E6 infected with SARS-CoV-2
# Method: SARS-CoV-2 infection rate relative to infected DMSO; higher = more infection, active = 60 or less
# Study Conditions: 24 h
Measurement Kind: SARS-CoV-2 infection rate (%)
Supply the numeric figure in %, leaving out any unit text.

QUERY: Item COc1ccc(CCN)cc1OC [homoveratrylamine] (10 µM) has what recorded SARS-CoV-2 infection rate?
RESULT: 118

QUERY: Item CNC(=O)c1c(I)c(C(=O)NCC(=O)Nc2c(I)c(C(=O)O)c(I)c(C(=O)NCCO)c2I)c(I)c(N(C)C(C)=O)c1I [ioxaglic-acid] (10 µM) has what recorded SARS-CoV-2 infection rate?
RESULT: 104

QUERY: Item Oc1c(I)cc(I)c(O)c1I [riodoxol] (10 µM) has what recorded SARS-CoV-2 infection rate?
RESULT: 107

QUERY: Item COc1cc2nc(N3CCN(C(=O)c4ccco4)CC3)nc(N)c2cc1OC [prazosin] (10 µM) has what recorded SARS-CoV-2 infection rate?
RESULT: 107

QUERY: Item CCN(c1ccccc1)c1cc(=NC)n(C)c(C)n1 (10 µM) has what recorded SARS-CoV-2 infection rate?
RESULT: 94

QUERY: Item CC(C)n1cnc2c(C(=O)N[C@H]3CN4CCC3CC4)cc(Cl)cc21 (10 µM) has what recorded SARS-CoV-2 infection rate?
RESULT: 85

QUERY: Item COc1ccc2c(Oc3ccc(NC(=O)c4c(C)n(CC(C)(C)O)n(-c5ccccc5)c4=O)nc3)ccnc2c1 (10 µM) has what recorded SARS-CoV-2 infection rate?
RESULT: 98

QUERY: Item Cc1cc(C)c2c(c1)[C@@H](N(Cc1cc(C(F)(F)F)cc(C(F)(F)F)c1)c1nnn(C)n1)CCCN2C[C@H]1CC[C@H](C(=O)O)CC1 [evacetrapib] (10 µM) has what recorded SARS-CoV-2 infection rate?
RESULT: 97
